# Test system: SNB-75
# PROTOCOL SUMMARY: NCI tumour cell line growth inhibition, 48 h
Activity calls are given as the source filed them. No stated cut-off is given here; in the data, active = GI50 up to about 1.1 µM and inactive = higher.
MEASURED QUANTITY: GI50

Some solved entries appear below for comparison.
O=C(Nc1cccc(Cl)c1)C(=O)C(C(=O)c1ccc2ccccc2c1)C1OC(=O)c2ccccc21 (stereo not given); 5.31 µM (inactive)
O=C(Cc1ccccc1)N/N=C1\C(=O)Nc2ccccc21; 37.2 µM (inactive)
NC(=O)C1CCCN1Cc1ccc2c(c1)OCO2 (stereo not given); > 100 µM (inactive)
CCOC(=O)C(Cl)(NC(=O)c1ccc(F)cc1)C(F)(F)F (stereo not given); 77.3 µM (inactive)
Oc1cc(/C=C/c2ccccc2)nc2cc3c(cc12)OCO3; 6.93 µM (inactive)
COc1cc(/C=C2\[C@H]3c4c(c(OC)c(C)c(OC)c4OC)CC(C(=O)N2Cc2ccccc2)N3C)c(OC)c(C)c1OC; 25.4 µM (inactive)

Would you kindly share the measured GI50 for CC[C@H]1CNC(=O)CC1CC(=O)OC (stereo not given in full) ?
> 100 µM (inactive)

What would you report for COC(=O)[C@@H]1C=CCN1S(=O)(=O)c1ccc(C)cc1 ?
> 100 µM (inactive)

What would you report for CN1CCN(C(=S)N(C(=O)c2ccco2)c2ccccc2)CC1 ?
> 100 µM (inactive)

What would you report for COC1CC2C3/C(=N/Nc4ccc([N+](=O)[O-])cc4[N+](=O)[O-])CCC2(C)C3C1 (stereo not given) ?
> 10 µM (inactive)
